system: HCT-116; assay: Antiproliferative activity against human HCT-116 cells; assay type: functional, cell-based
pIC50: −log10 of the molar value.
Reported metric: pIC50

Field pIC50 (entry O=C1c2cc(Cl)ccc2SC2c3[nH]c4ccc(O)cc4c3CCN12 (stereo unspecified) ) reads > 8.52

* * *

tested on: NCI-H460; assay: Antiproliferative activity against human NCI-H460 cells; type: functional, cell-based
Reported metric: pIC50
pIC50 here is simply -log10 of the concentration when that concentration is written in mol/L.

So the reported pIC50 for O=C(NCCc1c[nH]c2ccccc12)c1ccc(-c2ccccc2)cc1 , on NCI-H460, turned out to be 5.70

* * *

target: Tubulin; test: Inhibition of tubulin polymerization (unknown origin); assay type: protein-complex assay, Homo sapiens
Reported metric: pIC50
Scale: negative log10 of molar concentration, which is what pIC50 denotes.

response.value for COc1cc(C2=NN(C(N)=O)C(c3cn(C)c4ccc(Br)cc34)C2)cc(OC)c1OC (stereo unspecified) (field: pIC50) = 5.67

* * *

Recorded IC50 at 48 h, one value per entry.
assay: Antiproliferative activity against human MCF-10A cells assessed as cell growth inhibition incubated for 48 hrs by MTT assay; assay type: toxicity, cell-based

response.value for O=c1c2ccccc2nc2n1CCc1c-2[nH]c2ccccc12 (field: IC50 at 48 h) = > 20 µM

* * *

tested on: MCF7; test: Antiproliferative activity against human MCF7 cells assessed as cell growth inhibition incubated for 48 hrs by MTT assay; format: functional, cell-based; settings: Homo sapiens, MCF7, 48 h
Below is a list of entries, each paired with its recorded IC50 value.

Look over these answered cases.
>>> data_value("COc1ccc2c(c1)c(CCN1C(=O)c3ccccc3C1=O)c(-c1cc(=O)n3ccccc3n1)n2C(=O)OC(C)(C)C")
"> 20 µM"
>>> data_value("COc1ccc2[nH]c(-c3cc(=O)n4ccccc4n3)c(CCNC(=O)c3ccc(Cl)cc3)c2c1")
"> 20 µM"
>>> data_value("COc1ccc2[nH]c(-c3cc(=O)n4ccccc4n3)c(CCNC(=O)c3cc(OC)c(OC)c(OC)c3)c2c1")
"> 20 µM"

Next compound, IC50 to be filled in.
So, COc1ccc(C(=O)NCCc2c(-c3cc(=O)n4ccccc4n3)n(C(=O)OC(C)(C)C)c3ccccc23)cc1 ? Its IC50 was 7.7 µM

* * *

assay: Antiproliferative activity against human MCF-10A cells assessed as cell viability incubated for 48 hrs by MTT assay relative to control; type: toxicity, cell-based; design: concentration or dose not given beside the values; settings: read-out: Activity
Reported viability at 48 h by item:

>>> data_value("O=c1[nH]cc(F)c(=O)[nH]1 [FLUOROURACIL]")
"50%"

Short answer for COc1ccc2c(c1)c(CCNC(=O)c1ccc(Cl)cc1)c(-c1cc(=O)n3ccccc3n1)n2C(=O)OC(C)(C)C : viability at 48 h was 78.6%

Noted for COc1ccc(C(=O)NCCc2c(-c3cc(=O)n4ccccc4n3)n(C(=O)OC(C)(C)C)c3ccccc23)cc1 : its viability at 48 h reads 61.6%

Per the record, CC(C)(C)OC(=O)n1c(-c2cc(=O)n3ccccc3n2)c(CCNC(=O)c2ccc(Cl)cc2)c2ccccc21 has viability at 48 h of 83.4%

Value of measured viability at 48 h for the entry O=c1c2ccccc2nc2n1CCc1c-2[nH]c2ccccc12 [RUTAECARPINE] : 60.2%

* * *

test: Selectivity index, ratio of IC50 for antiproliferative activity against human MCF-10A cells to IC50 for antiproliferative activity against human MCF7 cells; type: toxicity, cell-based; settings: MCF-10A cells and MCF7 cells, read-out: Ratio IC50
Reported metric: selectivity ratio
Could you respond with only the numeric value?

>>> data_value("O=c1[nH]cc(F)c(=O)[nH]1")
3

Next:
Looking up O=c1c2ccccc2nc2n1CCc1c-2[nH]c2ccccc12 , I see its selectivity ratio listed as 1.2

* * *

IC50 overview
tested on: MCF7; test: Antiproliferative activity against human MCF7 cells assessed as cell growth inhibition incubated for 48 hrs by MTT assay; type: functional, cell-based; details: Homo sapiens, MCF7, 48 h

Past entries and their recorded results:
>>> data_value("O=C(NCCc1c(-c2cc(=O)n3ccccc3n2)[nH]c2ccccc12)c1ccc(Cl)cc1")
"> 20 µM"
>>> data_value("CC(C)(C)OC(=O)n1c(-c2cc(=O)n3ccccc3n2)c(CCNC(=O)c2ccc(Cl)cc2)c2ccccc21")
"15.8 µM"
>>> data_value("COc1ccc2c(c1)c(CCNC(=O)c1ccc(Cl)cc1)c(-c1cc(=O)n3ccccc3n1)n2C(=O)OC(C)(C)C")
"14 µM"
>>> data_value("COc1ccc2[nH]c(-c3cc(=O)n4ccccc4n3)c(CCN3C(=O)c4ccccc4C3=O)c2c1")
"> 20 µM"
>>> data_value("O=c1c2ccccc2nc2n1CCc1c-2[nH]c2ccccc12 [RUTAECARPINE]")
"> 20 µM"

Now examine the next entry.
Field IC50 (system: MCF7) for entry O=C1c2ccccc2C(=O)N1CCc1c(-c2cc(=O)n3ccccc3n2)[nH]c2ccccc12 = > 20 µM

* * *

test: Antiproliferative activity against human MCF-10A cells assessed as cell growth inhibition incubated for 48 hrs by MTT assay; format: toxicity, cell-based
Let's look at some compounds and their measured IC50 at 48 h.

>>> data_value("CC(C)(C)OC(=O)n1c(-c2cc(=O)n3ccccc3n2)c(CCNC(=O)c2ccc(Cl)cc2)c2ccccc21")
"> 20 µM"
>>> data_value("COc1ccc2c(c1)c(CCNC(=O)c1ccc(Cl)cc1)c(-c1cc(=O)n3ccccc3n1)n2C(=O)OC(C)(C)C")
"> 20 µM"
>>> data_value("COc1ccc(C(=O)NCCc2c(-c3cc(=O)n4ccccc4n3)n(C(=O)OC(C)(C)C)c3ccccc23)cc1")
"> 20 µM"

Attention now turns to another entry.
Measured IC50 at 48 h of O=c1[nH]cc(F)c(=O)[nH]1 : 19.5 µM

* * *

assay: Selectivity index, ratio of IC50 for antiproliferative activity against human MCF-10A cells to IC50 for antiproliferative activity against human MCF7 cells; assay type: toxicity, cell-based; settings: MCF-10A cells and MCF7 cells, read-out: Ratio IC50
Entries and their measured selectivity ratio follow.

>>> data_value("COc1ccc(C(=O)NCCc2c(-c3cc(=O)n4ccccc4n3)n(C(=O)OC(C)(C)C)c3ccccc23)cc1")
"> 3.2"
>>> data_value("CC(C)(C)OC(=O)n1c(-c2cc(=O)n3ccccc3n2)c(CCNC(=O)c2ccc(Cl)cc2)c2ccccc21")
"> 2.11"

selectivity ratio recorded for this molecule, COc1ccc2c(c1)c(CCNC(=O)c1ccc(Cl)cc1)c(-c1cc(=O)n3ccccc3n1)n2C(=O)OC(C)(C)C , is > 2.25

Numbers sourced from ChEMBL document CHEMBL5550179.
